- System: collagen antibody-induced arthritis (CAIA) in BALB/c mice
- method description: Footpad thickness change in acute stage of CAIA
- Assay type: in vivo
- test conditions: day 10; oral once daily day 0 to day 9; mean±SEM; arthritis group 1.0446±0.0369
readout kind: footpad thickness (average increase compared to baseline) (mm)
Report the value in mm with no unit label.

// solved cases for footpad thickness (average increase compared to baseline) follow
CC(C)=CCOc1ccc(C2=C(CC(C)C)C(=O)NC2=O)cc1 [B group] :: 0.837
CC(C)=CCOc1ccc([C@H]2C(=O)N(O)C(=O)[C@@H]2CC(C)C)cc1 (relative stereo) [D group] :: 0.729
CC(C)=CCOc1ccc(C2=C(CC(C)C)C(=O)N(O)C2=O)cc1 [C group] :: 0.8605

Give the measured footpad thickness (average increase compared to baseline) of CC(C)=CCOc1ccc(C2=C(CC(C)C)C(=O)OC2=O)cc1 [A group] .
0.840

###

- Test system: collagen antibody-induced arthritis (CAIA) in BALB/c mice
- method description: Disease activity score (macroscopic scoring of four limbs) in acute stage of CAIA
- Assay type: in vivo
- test conditions: day 10; oral once daily; mean±SEM; arthritis group 53.71±2.763
readout kind: disease activity score (maximum 60 per mouse)
Answer with the value's number alone.

Example entries and their recorded answers appear below.
CC(C)=CCOc1ccc([C@H]2C(=O)N(O)C(=O)[C@@H]2CC(C)C)cc1 (relative stereo) [D group] :: 39.687
CC(C)=CCOc1ccc(C2=C(CC(C)C)C(=O)NC2=O)cc1 [B group] :: 45.58

Endpoint output: disease activity score (maximum 60 per mouse) of CC(C)=CCOc1ccc(C2=C(CC(C)C)C(=O)OC2=O)cc1 [A group] . Value?
46.0

Continue with CC(C)=CCOc1ccc(C2=C(CC(C)C)C(=O)N(O)C2=O)cc1 [C group]
47.718

The reported numbers originate from patent US9713605B2.
